Origin of the recorded values: patent US11976070B1

Tested on: MCF7 (breast)
assay details: In vitro cytotoxic activity (MTT) assay, MCF7
Format: cell-based
setup conditions: Homo sapiens; MCF7 (breast) cells, exposed for 96 hours; read-out: IC50, 50% inhibition of cell proliferation
property label: pIC50
When answering, recall that pIC50 equals minus log10 of the concentration in mol/L, and write that number alone.

The value of pIC50 measured for the molecule Clc1cccc(Nc2nc3ccncc3c3nc4ccncn4c23)c1 [Compound 1] turned out to be 5.29
